biological target: recombinant HIV-1 protease expressed in E. Coli (Human immunodeficiency virus type 1 group M subtype B); construct: Enzyme: recombinant HIV-1 protease expressed in E. Coli; assay: HIV-1 Protease Enzyme Assay (Ki), fluorimetric detection of hexapeptide substrate cleavage; conditions: recombinant HIV-1 protease 1 to 2.5 nM, substrate 40 μM, pH 5.3, 37° C., tight-binding competitive inhibition

[
  {
    "Chem smiles": "CCOP(=O)(COc1ccc(C[C@H](NC(=O)O[C@H]2CO[C@H]3OCC[C@H]32)[C@@H](O)CN(Cc2ccc(-c3ccccn3)cc2)NC(=O)[C@@H](NC(=O)OC)C(C)(C)C)cc1)OCC",
    "Ki": "< 30 pM"
  }
]
